Each item that follows carries a reported pKd.
Target: human ApoC3 (human)
Sequence (chain, as listed by the source): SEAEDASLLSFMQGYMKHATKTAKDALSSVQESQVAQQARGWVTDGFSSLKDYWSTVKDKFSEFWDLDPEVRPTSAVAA
Experiment: SPR pH 7.4, antibody immobilized
Lab note — pKd values are minus log10 of concentrations in M.

• mAb8 (antibody, V domains shown) VH: QLVESGGGLVQPGGSLRLSCAASGFTFSTYSMRWVRQAPGKGLEWVSSIHTDAGGTAYRDSVKGRFTISRDNAKNTLYLQMNNLRAEDTAVYYCVIAGYSDWGQGTLVTVSS VL: DIVMTQSPLSLSVVPGEPASISCKTSQGLVHSDGKTYFYWFLQKPGQSPQQLIYQVSNRASGVPDRFSGSGSGTDFTLKISRVEAEDVGVYYCAHGTYYPHTFGQGTRLEIK = 6.62

Would you kindly look at the next entry?
**Query** # return recorded pKd for input mAb10 (antibody, V domains shown) VH: QLVESGGGLVQPGGSLRLSCAASGFTFSTYSMRWVRQVPGKGLEWVSSIHTEGGGTAYRDSVKGRFTISRDNAKNTLYLQMNNLRAEDTAVYYCVIAGYSDWGQGTLVTVSS VL: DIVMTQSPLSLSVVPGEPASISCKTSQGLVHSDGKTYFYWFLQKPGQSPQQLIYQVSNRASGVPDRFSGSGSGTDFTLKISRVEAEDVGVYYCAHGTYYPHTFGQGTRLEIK
**Result** 6.72
